PROCEDURE DETAILS: Tested for the Cmax in rat at 10 mg/kg per orally
Assay type: ADME, organism-based
Design: dose 10 mg/kg, route oral
MEASUREMENT CONTEXT: in vivo, po
READOUT KIND: Cmax (µM)
Answer in µM, number only, no unit symbol.

Entry Nc1nc(N)c(F)c(-c2nc(-c3ccc(F)cc3)c(-c3ccncc3)[nH]2)c1F ; Cmax = 3.12

====

TARGET: Mitogen-activated protein kinase 14 (Mus musculus)
PROCEDURE DETAILS: […] inhibition of murine Mitogen-activated protein kinase p38 alpha activity, GST-ATF-2 as substrate in the presence of 120 uM ATP
pIC50: −log10 of the molar value.
Mark Met for reported pIC50 of 6 or greater; mark Not met for anything smaller.

Q: Please indicate if the recorded pIC50 for Nc1nc(F)c(F)c(-c2nc(-c3ccc(F)cc3)c(-c3ccncc3)o2)c1F meets or exceeds 6.
A: Not met

Q: Please indicate if the recorded pIC50 for Nc1nc(N)c(F)c(-c2nc(-c3cccc(C(F)(F)F)c3)c(-c3ccncc3)[nH]2)c1F meets or exceeds 6.
A: Met

Q: Please indicate if the recorded pIC50 for Nc1nc(N)c(F)c(-c2nc(-c3ccc(F)cc3)c(-c3ccncc3)[nH]2)c1F meets or exceeds 6.
A: Met

Q: Please indicate if the recorded pIC50 for Fc1ccc(-c2nn(-c3c(F)c(F)nc(F)c3F)nc2-c2ccncc2)cc1 meets or exceeds 6.
A: Not met

====

TARGET: Mitogen-activated protein kinase 14 (Mus musculus, UniProt P47811)
Sequence (P47811 whole entry): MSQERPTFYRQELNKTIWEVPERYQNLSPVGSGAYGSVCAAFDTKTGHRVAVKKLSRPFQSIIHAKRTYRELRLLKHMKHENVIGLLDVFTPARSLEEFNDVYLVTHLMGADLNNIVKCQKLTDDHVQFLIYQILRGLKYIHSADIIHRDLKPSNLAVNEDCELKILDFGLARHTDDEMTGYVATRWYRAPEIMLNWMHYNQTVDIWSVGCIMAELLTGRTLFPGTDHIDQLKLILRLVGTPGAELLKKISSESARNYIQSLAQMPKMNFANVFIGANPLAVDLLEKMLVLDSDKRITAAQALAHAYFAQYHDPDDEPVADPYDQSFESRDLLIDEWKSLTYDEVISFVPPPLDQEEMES
PROCEDURE DETAILS: […] inhibition of murine Mitogen-activated protein kinase p38 alpha activity, GST-ATF-2 as substrate in the presence of 120 uM ATP
What pIC50 was measured for each of the following?
Reminder that pIC50 means the negative base-10 logarithm of the concentration expressed in mol/L.

Entry Fc1ccc(-c2[nH]ccc2-c2ccncc2)cc1 ; pIC50 = 6.10

Entry Nc1nc(N)c(F)c(-c2nc(-c3ccncc3)c(-c3ccco3)[nH]2)c1F ; pIC50 = 6.17

Entry Fc1ccc(-c2[nH]nnc2-c2ccncc2)cc1 ; pIC50 = 5.89

Entry Fc1ccc(-c2ncsc2-c2ccncc2)cc1 ; pIC50 = 6.10
